System: Wolbachia pipientis
Assay: Anti-Wolbachia Cell-Based Screen
Type: functional
Set-up: scale not given: in the data most compounds retested in dose-response had high values
Settings: 5 µM
The whole screen tested about 48,000 compounds, of which about 13,000 (27%) showed an effect of 50% or more. The list shows a part of the results.
Property Measured: Percent Effect (%)
Give bare numbers, in %.

Molecule	Experimental Target	Property Measured	Output Unit	Numeric Readout
CC(Cn1cncn1)NC(=O)NCC(C)(C)c1ccc(F)cc1 (stereo unspecified)	Wolbachia pipientis	Percent Effect	%	10.62
Cc1nn(C)cc1-c1cc(C(=O)NCC(C)(C)c2ccc(F)cc2)n[nH]1	Wolbachia pipientis	Percent Effect	%	130.7
Cc1nncn1CCNC(=O)C(C)(C)c1cccc(F)c1	Wolbachia pipientis	Percent Effect	%	-15.91
CCc1ncc(CN2C[C@@H]3C[C@@H](O)CN3C[C@@H]2Cc2ccccc2)cn1	Wolbachia pipientis	Percent Effect	%	90.44
COCc1ncc(CN2CC[C@@](C)(O)[C@@H](Cc3ccccc3)C2)cn1	Wolbachia pipientis	Percent Effect	%	-1.853

Please look at the items below and tell me Percent Effect for each one, in order.
1. O=C(NCc1ccccc1-n1cccn1)N1CCN2CCCCC2C1 (stereo unspecified)
2. CCc1ncc(CN2CCCN(CC3CC3)C(C(C)C)C2)cn1 (stereo unspecified)
3. COc1ncc(CN2C[C@@H]3C[C@@H](O)CN3C[C@@H]2Cc2ccccc2)cn1

Result:
-0.3123
-1.309
106.8

Please look at the items below and tell me Percent Effect for each one, in order.
1. COc1ncc(CN2CCOC(Cc3cccc4ccccc34)C2)cn1 (stereo unspecified)
2. CCn1c(Cn2cccn2)nnc1C1CCN(Cc2ccc(C)o2)CC1
3. Cn1nnnc1SCCC(=O)NCC(C)(C)c1ccccc1F

Result:
-6.808
4.312
-11.64
